Assay: Solubility of methyl paraben co-crystal in pH 4.5 and 6.8 buffer (HPLC)
Format: physicochemical
Conditions: pH 4.5 buffer, 25 °C, pH 4.5, aqueous buffer, thermodynamic from solid, pH 4.5 buffer, 1 hour, 25° C., single sample; read-out: Solubility

molecule	unit.abbreviation	solubility at 1 h
CC(C)(C=C(C#N)C(=O)N1CCCC(n2nc(-c3ccc(Oc4ccccc4)cc3F)c3c(N)ncnc32)C1)N1CCN(C2COC2)CC1 (stereo not shown)	µg/mL	650

###

Assay: Visual solubility of Form B crystal in common solvents at RT
Format: physicochemical
Conditions: organic solvent or mixture, thermodynamic from solid; Cyclohexanone; visually estimated

compound	solubility at 15 min
CC(C)(C=C(C#N)C(=O)N1CCCC(n2nc(-c3ccc(Oc4ccccc4)cc3F)c3c(N)ncnc32)C1)N1CCN(C2COC2)CC1 (stereo not shown) [Compound (I) Form B]	20 to 100 mg/mL

Reference source: patent US20250376471A1
